The origin of these recorded values is patent US20210253725A1.

Target: T1, CD134 protein (His-tagged, Sino Biological Inc. 10481-H08H) (human, UniProt P43489 29-216)
T1 construct: bought protein coated on ELISA plates; also called OX40; TNFRSF4; not shown: His tag
T1 sequence (looked up): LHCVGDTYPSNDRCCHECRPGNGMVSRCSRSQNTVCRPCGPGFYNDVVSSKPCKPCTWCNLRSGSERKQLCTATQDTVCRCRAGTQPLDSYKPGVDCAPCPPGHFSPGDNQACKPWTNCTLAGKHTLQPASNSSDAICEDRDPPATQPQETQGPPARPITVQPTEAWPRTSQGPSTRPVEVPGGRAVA
Assay: ELISA, coated His-tagged CD134; further: test concentration or dose not given here
metricName: ELISA [abs. corr.] (abs. corr.)
Give the value in abs. corr. but do not write abs. corr. after it.

P018.S.04.A.H05 (antibody, V domains shown, V regions on human Ig constant parts; also called AB134_15) VH: QSVEESGGRLVTPGTPLTLTCTVSGFSLSSYAMGWVRQAPGKGLEWIGWINTAGGTDYTSWAKGRFTISKTSTTVDLKVTSLTTEDTATYFCARYDYYYFDLWGQGTLVTVSS VL: AQVLTQTASSVSAAVGGTVTISCQSSQSVYDNNWLAWYQQKPGQPPKLLIYSASTLASGVPSRFKGSGSGTEFTLTISDLESDDAAAYYCHGVYSGSIHAFGGGTEVVVI | 2.97
P018.S.11.A.F02 (antibody, V domains shown, V regions on human Ig constant parts; also called AB134_38) VH: QSVEESGGRLVTPGTPLTLTCTASGFSLSNYNMGWVRQAPGEGLEWIGHISTDGSAYYASWAKGRFTISKTSTTVDLKITSPTTEDTGTYFCARLYYRHGYALNLWGQGTLVTVSS VL: DIVMTQTPASVSEPVGGTVTIKCQASQSVGSYLAWYQQKSGQPPKLLIYSASTLASGVPSRFKGSGSGTEFTLTISDLVSADAATYYCHCTYGSNITANWGTFGGGTGVVVK | 2.43

Now for a further binder.
-- ask Would you mind telling me what ELISA [abs. corr.] value was observed for P018.S.04.A.G05 (antibody, V domains shown, V regions on human Ig constant parts; also called AB134_14) VH: QSVEESGGRLVTPGTPLTLTCTVSGFSLSTYYMSWVRQAPGKSLEWIGCIHGDDGSTWYASWVQGRFTISKASTTVDLQIASPTTEDTATYFCARGLPYWPNDGDFNLWGQGTLVTVSS VL: TQVLTQTPSPVSAAVGGTVSISCQSSQSVYNNNWLSWFQQKPGQPPKLLVYGASTLASGVPSRFKGSGSGTQFTLTISDLESDDAATYYCAGGYYTTSDNGFGGGTEVVVK ?
-- reply 2.87
